Target: human hERG channels (Homo sapiens (Human))
Sequence (Q12809 whole entry): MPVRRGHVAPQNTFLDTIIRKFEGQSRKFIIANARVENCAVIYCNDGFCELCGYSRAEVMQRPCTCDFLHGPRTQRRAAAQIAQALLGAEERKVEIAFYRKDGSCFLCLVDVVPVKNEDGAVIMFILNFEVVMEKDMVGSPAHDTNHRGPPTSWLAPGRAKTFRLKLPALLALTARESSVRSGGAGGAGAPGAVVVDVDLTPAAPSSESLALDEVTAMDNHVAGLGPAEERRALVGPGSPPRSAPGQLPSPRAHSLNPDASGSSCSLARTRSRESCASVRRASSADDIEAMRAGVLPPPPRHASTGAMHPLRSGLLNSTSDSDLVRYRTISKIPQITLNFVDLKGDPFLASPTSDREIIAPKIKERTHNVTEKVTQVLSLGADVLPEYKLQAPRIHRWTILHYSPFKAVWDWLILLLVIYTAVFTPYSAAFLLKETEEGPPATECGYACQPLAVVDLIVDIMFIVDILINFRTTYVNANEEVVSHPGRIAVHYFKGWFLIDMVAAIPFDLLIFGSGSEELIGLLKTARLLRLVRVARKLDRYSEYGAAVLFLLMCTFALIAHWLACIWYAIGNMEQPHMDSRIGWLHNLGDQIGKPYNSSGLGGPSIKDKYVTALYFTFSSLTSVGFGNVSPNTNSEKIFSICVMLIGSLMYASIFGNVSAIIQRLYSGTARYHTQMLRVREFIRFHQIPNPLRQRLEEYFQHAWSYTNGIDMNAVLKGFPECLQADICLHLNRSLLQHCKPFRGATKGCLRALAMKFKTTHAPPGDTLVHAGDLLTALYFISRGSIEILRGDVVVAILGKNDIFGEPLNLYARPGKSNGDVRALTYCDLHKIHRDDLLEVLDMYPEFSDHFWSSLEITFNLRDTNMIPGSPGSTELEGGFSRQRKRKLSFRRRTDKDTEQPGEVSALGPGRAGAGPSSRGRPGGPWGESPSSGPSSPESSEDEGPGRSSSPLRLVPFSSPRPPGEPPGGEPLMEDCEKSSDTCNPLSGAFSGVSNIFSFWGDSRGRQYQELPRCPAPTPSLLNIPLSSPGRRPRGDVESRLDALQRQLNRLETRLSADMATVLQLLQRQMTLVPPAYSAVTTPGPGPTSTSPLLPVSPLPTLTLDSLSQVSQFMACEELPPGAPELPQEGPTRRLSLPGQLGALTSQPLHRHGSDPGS
Assay: hERG assay (patch clamp, CHO cells)
Assay type: cell-based
pIC50: −log10 of the molar value.
result_type: pIC50

compound="CC(C)c1ccccc1Oc1ccc(C2CCN(C(=O)c3cccc(Cl)n3)C2)c(CO)c1 (centres unmarked)" result_type=pIC50 reported=~5.27

Next compound, please.
Prompt: Fill blank: measured pIC50 of the compound CC(C)c1ccccc1Oc1ccc(C2CC(=O)N(Cc3ccccn3)C2)c(CO)c1 (centres unmarked) is ____.
Response: ~5.22

###

Biological target: hTRPV3 (Homo sapiens (Human), UniProt Q8NET8)
Sequence (Q8NET8 whole entry): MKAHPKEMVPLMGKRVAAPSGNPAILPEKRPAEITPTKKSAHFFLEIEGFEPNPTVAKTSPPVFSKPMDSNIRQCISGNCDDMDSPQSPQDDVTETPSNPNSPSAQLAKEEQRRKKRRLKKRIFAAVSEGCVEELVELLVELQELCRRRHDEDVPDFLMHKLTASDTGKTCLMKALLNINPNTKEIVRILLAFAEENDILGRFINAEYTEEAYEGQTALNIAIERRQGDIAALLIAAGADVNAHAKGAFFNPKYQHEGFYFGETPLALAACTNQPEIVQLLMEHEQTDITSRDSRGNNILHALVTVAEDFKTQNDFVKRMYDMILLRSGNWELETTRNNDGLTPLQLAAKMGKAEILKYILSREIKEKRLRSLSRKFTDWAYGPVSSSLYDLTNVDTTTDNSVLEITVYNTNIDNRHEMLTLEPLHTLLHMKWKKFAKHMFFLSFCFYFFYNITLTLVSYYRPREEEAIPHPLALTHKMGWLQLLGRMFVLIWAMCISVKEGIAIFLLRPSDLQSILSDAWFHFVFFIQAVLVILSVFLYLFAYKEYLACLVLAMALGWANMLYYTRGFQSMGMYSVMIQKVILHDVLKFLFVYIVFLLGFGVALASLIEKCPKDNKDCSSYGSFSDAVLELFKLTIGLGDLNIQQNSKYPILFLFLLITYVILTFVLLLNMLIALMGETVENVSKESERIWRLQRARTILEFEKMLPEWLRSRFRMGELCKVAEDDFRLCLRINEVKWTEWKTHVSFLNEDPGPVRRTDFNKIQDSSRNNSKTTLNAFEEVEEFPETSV
Assay: Whole-cell patch clamp, hTRPV3 Phase 1 / Phase 2 currents
Type: cell-based
Details: Phase 1 current; read-out: hTRPV3 (nM) (Phase 1)
result_type: log10 of IC50 (log10 of the value in nM)
Parameter value (number): base-10 log of IC50 in nM.

Prompt: Fill blank: measured log10 of IC50 of the molecule Cc1ccc(C(O)c2ccc(N3CC[C@H](Oc4ncccc4Cl)C3)c(CCO)c2)cc1 (some centres unmarked) is ____.
Response: 3.62

Prompt: Fill blank: measured log10 of IC50 of the molecule `CCc1ccccc1-c1ccc(N2CC[C@H](Oc3ncccc3C)C2)c(CO)n1` is ____.
Response: 2.86

Prompt: Fill blank: measured log10 of IC50 of the molecule `OCc1cc([C@@H](O)c2ccccc2Cl)ccc1N1CC[C@H](Oc2ncccc2F)C1` is ____.
Response: 1.09

Prompt: Fill blank: measured log10 of IC50 of the molecule OCCc1ccc(C(O)c2ccccc2Cl)cc1N1CC[C@H](Oc2ncccc2Cl)C1 (some centres unmarked) is ____.
Response: 3.00

Prompt: Fill blank: measured log10 of IC50 of the molecule OCCc1cc(C(O)c2ccc(F)cc2)ccc1N1CC[C@H](Oc2ncccc2Cl)C1 (some centres unmarked) is ____.
Response: 3.03

Prompt: Fill blank: measured log10 of IC50 of the molecule `NC(=O)c1ccc(O[C@H]2CCN(c3ccc(-c4ccccc4)cc3CO)C2)nc1` is ____.
Response: 3.11
